Kindly supply the reported IC50 values for the records listed here.
# Tested on: UniProt P06276
Field format: number, assumed µM, no unit text.

Measured IC50, COc1cc(C)c2c3c1OC1C[C@@H](O)C=CC31CCN(CCN1CCOCC1)C2 (mixture of isomers) : 5.2

Measured IC50, C=CCN1CCC23C=C[C@H](O)CC2Oc2c(OC)cc(Br)c(c23)C1 (mixture of isomers) : 2.6

Measured IC50, COc1ccc2c3c1O[C@@H]1C[C@H](O)C=C[C@]31CCN(C(=O)NC(C)C)C2 : 90

----------
Kindly supply the reported pIC50 values for the records listed here.
Worth noting: pIC50 values are minus log10 of concentrations stated in mol/L.

The value of pIC50 recorded for COc1cc(C)c2c3c1OC1C[C@@H](O)C=CC31CCN(C)C2 (mixture of isomers) when tested on Butyrylcholinesterase (Homo sapiens) reads 4.77

The value of pIC50 recorded for COc1ccc2c(c1)CC(CCCCN1CC[C@@]34C=C[C@H](O)C[C@@H]3Oc3c(OC)ccc(c34)C1)C2=O (stereo partly shown) when tested on Butyrylcholinesterase (Homo sapiens) reads 6.10

The value of pIC50 recorded for COc1ccc2c3c1OC1C[C@@H](O)C=CC31CCN(CCCN1CC3CC1CN3c1ccc(F)cc1)C2 (mixture of isomers) when tested on Butyrylcholinesterase (Homo sapiens) reads 5.30

The value of pIC50 recorded for C=CCN1CCC23C=C[C@H](O)CC2Oc2c(OC)cc(C)c(c23)C1 (mixture of isomers) when tested on Butyrylcholinesterase (Homo sapiens) reads 5.64

----------
The next entries give measured pIC50 for UniProt:P06276.
Worth noting: pIC50 values are minus log10 of concentrations stated in mol/L.

Measured pIC50, COc1ccc2c3c1O[C@@H]1C[C@H](O)C=C[C@]31CCN(CCCN1CCCCC1)C2 : 4.64

Measured pIC50, COc1cc(C)c2c3c1OC1C[C@@H](O)C=CC31CC[N+](C)(Cc1ccccc1)C2 (mixture of isomers) : 6.15

Measured pIC50, C=CCCC(=O)N1CC[C@@]23C=C[C@H](O)C[C@@H]2Oc2c(OC)ccc(c23)C1 : 5.59

----------
Reported endpoint: IC50

The value of IC50 recorded for COc1cc(Br)c2c3c1OC1C[C@@H](O)C=CC31CCN(CCO)C2 (mixture of isomers) when tested on Butyrylcholinesterase (Homo sapiens, UniProt P06276) reads 6.4 µM

The value of IC50 recorded for COc1ccc2c3c1OC1C[C@@H](O)C=CC31CCN(CCCN)C2 (mixture of isomers) when tested on Butyrylcholinesterase (Homo sapiens, UniProt P06276) reads 11 µM

The value of IC50 recorded for COc1ccc2c3c1O[C@H]1C[C@@H](O)C=C[C@@]31CCN(CCCN(C)C)C2 (racemic) when tested on Butyrylcholinesterase (Homo sapiens, UniProt P06276) reads 10 µM

The value of IC50 recorded for COc1ccc2c3c1O[C@H]1C[C@@H](O)C=C[C@@]31CC[N+](C)(Cc1ccc(Br)cc1)C2 (stereo partly shown) when tested on Butyrylcholinesterase (Homo sapiens, UniProt P06276) reads 0.6 µM

The value of IC50 recorded for COc1ccc2c3c1OC1C[C@@H](O)C=CC31CCN(CCN1CCOCC1)C2 (mixture of isomers) when tested on Butyrylcholinesterase (Homo sapiens, UniProt P06276) reads 7 µM

The value of IC50 recorded for COc1ccc2c3c1O[C@@H]1C[C@H](O)C=C[C@]31CCN(CCCN(C)C)C2 when tested on Butyrylcholinesterase (Homo sapiens, UniProt P06276) reads 67 µM

The value of IC50 recorded for CCCCCCN1CCC23C=C[C@H](O)CC2Oc2c(OC)cc(Br)c(c23)C1 (mixture of isomers) when tested on Butyrylcholinesterase (Homo sapiens, UniProt P06276) reads 0.45 µM

The value of IC50 recorded for COc1ccc2c3c1O[C@H]1C[C@@H](O)C=C[C@@]31CCN(C(=O)Oc1ccccc1)C2 when tested on Butyrylcholinesterase (Homo sapiens, UniProt P06276) reads > 100 µM

The value of IC50 recorded for CCNC(=O)N1CCC23C=C[C@H](O)CC2Oc2c(OC)ccc(c23)C1 (mixture of isomers) when tested on Butyrylcholinesterase (Homo sapiens, UniProt P06276) reads > 100 µM

The value of IC50 recorded for COc1ccc2c3c1O[C@H]1C[C@@H](O)C=C[C@@]31CCN(C(=O)Nc1ccccc1C(F)(F)F)C2 when tested on Butyrylcholinesterase (Homo sapiens, UniProt P06276) reads > 100 µM

The value of IC50 recorded for CCN(CC)c1nccc(N2CCC34C=C[C@H](O)CC3Oc3c(OC)ccc(c34)C2)n1 (mixture of isomers) when tested on Butyrylcholinesterase (Homo sapiens, UniProt P06276) reads > 100 µM

The value of IC50 recorded for C=CCNC(=S)N1CCC23C=C[C@H](O)CC2Oc2c(OC)ccc(c23)C1 (mixture of isomers) when tested on Butyrylcholinesterase (Homo sapiens, UniProt P06276) reads > 100 µM

The value of IC50 recorded for COc1ccc2c3c1O[C@H]1C[C@@H](O)C=C[C@@]31CCN(CCN)C2 when tested on Butyrylcholinesterase (Homo sapiens, UniProt P06276) reads 2.1 µM

The value of IC50 recorded for COc1cc(N(C)C)c2c3c1O[C@H]1C[C@@H](O)C=C[C@@]31CCN(C)C2 when tested on Butyrylcholinesterase (Homo sapiens, UniProt P06276) reads 0.47 µM

The value of IC50 recorded for COc1cc(Br)c2c3c1OC1C[C@@H](O)C=CC31CCN(CC#N)C2 (mixture of isomers) when tested on Butyrylcholinesterase (Homo sapiens, UniProt P06276) reads 70 µM

The value of IC50 recorded for COc1cc(C)c2c3c1OC1C[C@H](O)C=CC31CC[N+](C)(Cc1ccc(C(F)(F)F)cc1)C2 (mixture of isomers) when tested on Butyrylcholinesterase (Homo sapiens, UniProt P06276) reads 5.4 µM
